Source: PubChem BioAssay (NCI)

Experiment: NCI Yeast Anticancer Drug Screen. Data for the wt1 strain (AID 149);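 note: 0% = growth of vehicle-treated wt1 cultures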
Conditions: S. cerevisiae wt1 strain (SPY 50644) growth inhibition; at 33.0 µM; stronger effect = higher value
Procedure: Growth inhibition of yeast strains with defined genetic alterations is measured as a screen for potential anti-cancer activity. Selected strains with alterations in DNA damage repair or cell cycle control were exposed to compounds and growth inhibition was measured relative to vehicle treated controls. The strain used in this assay is wt1
This is part of a sample that, as a whole, favours compounds with a hit. Of some 79,000 tested, about 15% had one in any assay.
Each record here notes measured growth inhibition.

molecule	growth inhibition (%)
CCc1ccc(NS(=O)(=O)c2ccccc2)c([N+](=O)[O-])c1	5
Oc1ccc(NCn2c(=S)sc3ccccc32)cc1	29
CC[C@@]1(O)C(=O)OCc2c1cc1n(c2=O)Cc2cc3c(N)cccc3nc2-1	8
CC(Br)C(=O)c1ccc2cc(Br)c3ccccc3c2c1 (centres undefined)	-5

###

In this section, each of the compounds is paired with its reported growth inhibition.
Experiment: NCI Yeast Anticancer Drug Screen. Data for the mec2-1 strain (AID 157)
Conditions: S. cerevisiae mec2-1 strain, at 1.2 µM, stronger effect = higher value
About 79,000 compounds went through this panel and 15% of them were active in at least one assay; those are over-represented in the sample as a whole.

compound	growth inhibition [%]
N#CN1C2CCC1CC(=O)C2	-27
C/C(=N/NC(=S)N1CCCCCC1)c1cccc(/C(C)=N\NC(=S)N2CCCCCC2)n1	22
C=CCC1=C(C)C(OC(=O)/C=C/c2ccccc2)CC1=O (stereo unspecified)	-4
C[Si](C)(C)CNC(=O)OCc1ccccc1	-2
Cc1[nH]c2ccccc2c1C(c1ccc(N)cc1)c1c(C)[nH]c2ccccc12	-1
Clc1ccc(SC(/C=C/NNC2=NC(c3ccccc3)C(c3ccccc3)=NN2)c2ccccc2)cc1 (stereo unspecified)	-1
C/C(=N\NC(=S)SCc1ccccc1)c1ccccn1	38
Cc1ccc(NC(=O)/C(Cl)=C(\Cl)C(=O)O)cc1C	6
O=c1ssc2ncccc12	3
CC(C)/C(Cl)=N\OC(=O)Nc1cccc(Cl)c1	0
COc1ccc(N=C2C(=O)Nc3ccc(Br)cc32)cc1	-19
CC1=C(SCCO)C(=O)c2ccccc2C1=O	-1
N#C/C(=C\c1cccc(OCc2ccccc2)c1)c1ccc([N+](=O)[O-])cc1	-88
C[C@H](CCC(=O)NN)[C@H]1CC[C@H]2[C@@H]3CC[C@@H]4C[C@H](O)CC[C@]4(C)[C@H]3CC[C@]12C	3
CC1=C(C)Cc2c(O)ccc(O)c2C1	-3
CCN(CC)CCN1C(=O)c2cccc3cc(OC)cc(c23)C1=O	-10
OC(c1ccc(F)cc1)(c1ccc(F)cc1)C1CC1	-87
O=C(COC(=O)c1cc(O)c(O)c(O)c1)c1ccc(-c2ccccc2)cc1	-3
COc1cc(C2SCC(=O)N2c2ccc(-c3ccc(-n4c(-c5ccccc5)nc5ccccc5c4=O)cc3)cc2)cc(OC)c1OC (stereo unspecified)	0
CC(/C=C/c1ccc2c(c1)OCO2)[N+](=O)[O-] (stereo unspecified)	4
Cc1cc(S(=O)(=O)/N=C(/NN)NNc2cccc(C(F)(F)F)n2)c(S)cc1Cl	0

###

Experiment: NCI Yeast Anticancer Drug Screen. Data for the cln2 rad14 strain (AID 165);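 note: 0% = growth equal to vehicle treated cultures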
Conditions: S. cerevisiae cln2 rad14 strain, at 50.0 µM (retest, dose inferred, filed as 5.0), stronger effect = higher value
This is part of a sample that, as a whole, favours compounds with a hit. Of some 79,000 tested, about 15% had one in any assay.
Item-by-item account of growth inhibition
assay.endpoint: growth inhibition (%)

compound	assay.endpoint	reported.value
COc1cc(C2c3cc4c(cc3OC(NNc3ccccc3)C2C)OCO4)cc(OC)c1OC (centres undefined)	growth inhibition	95
CSc1nc(=S)[nH]c2c1c(C)nn2-c1ccccc1	growth inhibition	62
Cc1ccc(S(=O)(=O)NNC(=S)Nc2cccc3ccccc23)cc1	growth inhibition	17
OC1CSCCCSCCSCCCSC1	growth inhibition	25
CCC#CCCCOC(=O)c1cc([N+](=O)[O-])cc([N+](=O)[O-])c1	growth inhibition	94
NC1=NS(=O)(=O)N=C(N)C1=Cc1ccc([N+](=O)[O-])o1	growth inhibition	25
O=C1c2ccccc2-c2n[nH]c3cccc1c23	growth inhibition	87
O=C(c1ccc(Cl)cc1Cl)C(Cl)Cl	growth inhibition	98
Cc1nc(-[n+]2nc(-c3ccncc3)nn2-c2ccccc2)sc1C	growth inhibition	11
Cc1cc(I)ccc1N	growth inhibition	93
COC1C=COC2(C)Oc3c(C)c(O)c4c(c3C2=O)/C(=N/C2CCC(O)OC2C)C=C(NC(=O)/C(C)=C\C(=O)C2CC2C(O)C(C)C(O)C(C)C(OC(C)=O)C1C)C4=O (centres undefined)	growth inhibition	57
CCN(CC)CCC(=O)c1ccc(Oc2ccc(F)cc2)cc1	growth inhibition	3
CN(C)c1nc2sc3c(c2c(=O)o1)CCCC3	growth inhibition	13
COc1cc(C2C3=C(COC3=O)Oc3cc4c(cc32)OCO4)ccc1O (centres undefined)	growth inhibition	43
CCCCCCCCCC/C=C\C(=O)O	growth inhibition	73
O=c1c2ccccc2ncn1COCc1ccccc1	growth inhibition	75
N/C(=N\OC(=O)NC(Cl)=C(Cl)Cl)c1cc(C(F)(F)F)cc(C(F)(F)F)c1	growth inhibition	94
Cc1c(C(=O)C(=O)c2ccccc2)c(C)c(C(=O)C(=O)c2ccccc2)c(C)c1C(=O)C(=O)c1ccccc1	growth inhibition	84
C(CCSC1=NCCN1)CSC1=NCCN1 (tested in a mixture with another compound)	growth inhibition	98
CC1(C)[C@@H]2CC[C@]1(C)[C@H](OC(=O)CSC#N)C2	growth inhibition	91
O=C(N=Nc1ccccc1Cl)NNc1ccccc1Cl	growth inhibition	45
O=C(O)c1cccc(-c2c3ccc(=O)cc-3oc3cc(O)ccc23)c1	growth inhibition	69
S=C(S)NN1CCOCC1	growth inhibition	22
COc1ccc(N=C2C(=O)Nc3ccc(Br)cc32)cc1	growth inhibition	37
COC(=O)c1ccc(NCC2=CC(=O)C=CC2=O)cc1O	growth inhibition	93
c1ccc(-c2nc3cccnc3s2)cc1	growth inhibition	-19
CCNc1nnc(CSc2nc(-c3ccccc3)c(-c3ccccc3)[nH]2)s1	growth inhibition	97
CC(=O)OCc1ccc(O)c(C=O)c1	growth inhibition	30
Cn1c(N)nc(-c2ccc(Cl)cc2)c1SSc1c(-c2ccc(Cl)cc2)nc(N)n1C	growth inhibition	-3
CCCCCCCCCCCCCC[N+](C)(CC(=O)[O-])Cc1ccccc1 (centres undefined)	growth inhibition	99
O=C(c1cc(Br)ccc1O)c1cc(Br)ccc1O	growth inhibition	98
Cc1ccc(C2C(Cl)C(=O)N2n2cnc3ccccc3c2=O)cc1 (centres undefined)	growth inhibition	28
Cc1ccc(NC(=O)/C(Cl)=C(\Cl)C(=O)O)cc1C	growth inhibition	99
COc1ccc(/C(C)=N/OC(=O)c2c(-c3ccccc3Cl)noc2C)cc1CN1CCOCC1	growth inhibition	97
Nc1ccn(C2OC(CO)C3[O][Sn]([c]4ccccc4)([c]4ccccc4)[O]C32)c(=O)n1 (centres undefined)	growth inhibition	-9
O=C(O)c1ccccc1NC(=S)c1ccccc1	growth inhibition	54
CN(N=O)N1C(=O)SCC(c2ccccc2)(c2ccccc2)C1=O	growth inhibition	16
COC(=O)C1=C(C)NC(C)=C(C(=O)OCCCN2CCC(c3ccccc3)(c3ccccc3)CC2)C1c1cccc([N+](=O)[O-])c1 (centres undefined)	growth inhibition	98
O=C(Cc1csc2[n+]1C(=O)/C(=C/c1ccc(Cl)cc1)S2)Nc1ccccc1	growth inhibition	98
